Just for reference, patent US5786486A is where these values come from.

test system: Colon 26 cells; experiment: Antitumor effect in Colon 26-bearing mice; assay type: in vivo, CDF1 female mice; conditions: ratio of maximum tolerant dose (mg/kg) to dose giving 50% tumor growth inhibition (mg/kg), colon26-bearing mice
Measurement kind: Chemotherapy index MTD/TGI50
Hey, just send me the number, nothing else.

As a guide, the following entries are already answered.
| Smiles structure | Reading |
| --- | --- |
| COC(=O)c1c(C(F)(F)F)[nH]c2c(O)cc3c(c12)[C@H](CCl)CN3C(=O)/C=C/c1ccc(/C=C/C(=O)N2C[C@@H](CCl)c3c2cc(O)c2[nH]c(C(F)(F)F)c(C(=O)OC)c32)c2c1OCCO2 | 9 |
| COC(=O)c1c(C(F)(F)F)[nH]c2c(O)cc3c(c12)[C@H](CCl)CN3C(=O)/C=C/c1ccc(/C=C/C(=O)N2C[C@@H](CCl)c3c2cc(O)c2[nH]c(C(F)(F)F)c(C(=O)OC)c32)cc1 | 21.9 |
| COC(=O)c1c(C(F)(F)F)[nH]c2c(O)cc3c(c12)[C@H](CCl)CN3C(=O)/C=C/c1ccc(/C=C/C(=O)N2C[C@@H](CCl)c3c2cc(O)c2[nH]c(C(F)(F)F)c(C(=O)OC)c32)c(OC)c1OC | 4.6 |
| COC(=O)c1c(C(F)(F)F)[nH]c2c(O)cc3c(c12)[C@H](CCl)CN3C(=O)/C=C/c1ccc(-c2ccc(/C=C/C(=O)N3C[C@@H](CCl)c4c3cc(O)c3[nH]c(C(F)(F)F)c(C(=O)OC)c43)cn2)nc1 | 3.6 |

Kindly consider the entry below.
For COC(=O)c1c(C(F)(F)F)[nH]c2c(O)cc3c(c12)[C@H](CCl)CN3C(=O)/C=C/c1ccc(/C=C/C(=O)N2C[C@@H](CCl)c3c2cc(O)c2[nH]c(C(F)(F)F)c(C(=O)OC)c32)c2ccccc12 , what is its reported Chemotherapy index MTD/TGI50?
7.4

---

Parameter: IC50. Scope: all listed entries.
Test system: HeLa S3 cells
Test: HeLa Cell Growth Inhibition Activity (HeLa S3, MTT)
Format: cell-based
Conditions: Homo sapiens, 72 hours exposure
Protocol: HeLa Cell Growth Inhibition Activity: HeLa S3 cells were maintained as a monolayer culture in Eagle's minimal medium (Nissui Seiyaku K. K., Tokyo) containing […] glutamine, 100 μg/mL of kanamycin sulfate, and 10% inactivated fetal calt serum at 37° C. in a carbon dioxide incubator. The cells 1.8×10^3 were inoculated to a 96-well plate, and were exposed to the test compounds from the next day for 72 hours. […]
Please reply with the bare figure in ng/mL and do not write the unit itself.

| Smiles structure | Reading |
| --- | --- |
| COC(=O)c1c(C(F)(F)F)[nH]c2c(O)cc3c(c12)[C@H](CCl)CN3C(=O)/C=C/c1ccc(/C=C/C(=O)N2C[C@@H](CCl)c3c2cc(O)c2[nH]c(C(F)(F)F)c(C(=O)OC)c32)cc1 | 0.0031 |

For COC(=O)c1c(C(F)(F)F)[nH]c2c(O)cc3c(c12)[C@H](CCl)CN3C(=O)/C=C/c1ccc(/C=C/C(=O)N2C[C@@H](CCl)c3c2cc(O)c2[nH]c(C(F)(F)F)c(C(=O)OC)c32)c2ccccc12 , what is its reported IC50?
0.011
